These measurements were taken from PubChem BioAssay.

ASSAY_OVERVIEW: endothelial E-selectin expression blockers – imaging, HUVEC, immunofluorescence, MLSMR starter and 10KST1 sets, primary screen (AID 487);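 note: signal is fraction of cell area covered by stained E-selectin grains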
SETUP_CONDITIONS: HUVEC TNFalpha-induced E-selectin immunofluorescence imaging, at 2 µM; hits give high values
MEASURED_PROPERTY: inhibition (%)

> print(dat)
                                    compound  measured.property  recorded.result
 1  O=C(CCNC(=O)Cn1ccc2ccccc2c1=O)NCCN1CCc2ccccc2C1         inhibition            -26.8
 2                 CCOc1ccc(/C=N/n2cnnc2)cc1         inhibition             17.6
 3     COc1cccc(N2CCN(CC(=O)NCc3cccs3)CC2)c1         inhibition             24.5
 4           COCCSc1nnc(NC(=O)CSCc2ccccc2)s1         inhibition            -31.2
 5  Cc1ccc(S(=O)(=O)C2(C(=O)N3CCCCCC3)CC2)cc1         inhibition            -46.5
 6  COc1cc(NC(=O)C2CC(c3cccc(OC)c3OC)=NO2)cc(OC)c1OC (configuration not stated)         inhibition             -176
 7  COC(=O)c1ccccc1S(=O)(=O)N(CCCO)Cc1cc2c(C)ccc(C)c2[nH]c1=O         inhibition            -55.4
 8                     NC(=O)CSCc1ccc(Br)cc1         inhibition             -103
 9                 Cc1nc(-c2ccccc2)sc1C(N)=O         inhibition            -40.1
10            COc1ccc(NC(=O)CSc2ccccn2)cc1OC         inhibition             10.4
11  CC1CCN(C(=O)c2cc(-c3ccc(Cl)c(Cl)c3)on2)CC1         inhibition              6.5
12   COc1ccc(-c2cc(C(=O)Nc3ccc(C)cc3)no2)cc1         inhibition             -9.7

* * *

TEST_TARGET: Alpha-2C adrenergic receptor (Homo sapiens)
ASSAY_OVERVIEW: compounds altering alpha2C-coupled GIRK flux – cell-based, HEK293 alpha2C/GIRK1/2, thallium flux, primary screen (AID 624);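 note: slope of fluorescence ratio to pre-addition baseline per second over 15 to 24 s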
SETUP_CONDITIONS: thallium flux BTC fluorescence, at 10 µM, actives lie on both sides
MEASURED_PROPERTY: slope

> print(dat)
                     structure.smiles.string  recorded.result
 1  O=C(c1cccc2c1C(=O)N(Cc1cccnc1)C2)N1CCN(c2ccccc2)CC1          0.00499
 2   Cc1cc(C)n2nc(SCC(=O)N(C)Cc3ccccc3)nc2n1          0.00539
 3                COC(=O)c1nc(N)sc1-c1ccccc1          0.00535
 4       Nn1c(SCC(=O)Nc2ccccc2)nnc1-c1cccnc1          0.00741
 5  O=C(Cn1cnc2c(cnn2-c2ccc(F)cc2)c1=O)N1CCN(c2ccccc2)CC1          0.00638
 6  COC(=O)c1ccc(C(=O)OC)c(NC(=O)Nc2ccc3c(c2)OCO3)c1          0.00311
 7                        CCCCOC(=O)Nc1nccs1          0.00518
 8        CC(=O)Nc1ccccc1OCc1nnc(-c2cccs2)o1          0.00944
 9  CCOc1ccc(OCC)c(NC(=O)CN2CCN(C(=O)c3ccco3)CC2)c1          0.00515
10     O=C(Nc1ccc2[nH]c3c(c2c1)CCCC3)c1ccco1          0.00582
11    COc1ccc(/C=N/n2c(SC)nnc2-c2ccccc2)cc1C          0.00536
